# assay-method-text: wild-type TIM10 yeast growth inhibition – luminescence, uHTS, counter-screen for tim10-1 yeast inhibitor project, primary screen (AID 463195);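 further: wild-type TIM10 isogenic control strain grown at permissive 25 °C; 0% = DMSO yeast wells and 100% = minimal medium wells without yeast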
# run-parameters: S. cerevisiae TIM10 strain growth, BacTiter-Glo luminescence, 24 h; at 10 µM; stronger effect = higher value
In all, about 330,000 compounds went through this assay and about 4,600 (1.4%) were called active. The list comes from a sample in which actives are over-represented; it also holds close analogues and randomly drawn compounds.
endpoint: inhibition (%)
Just the number please, in %, no unit attached.

Prompt: GET /values?readout=inhibition&item= `Cc1ccc(-n2cnc3ncnc(-c4ccccc4)c32)cc1`
Response: -13

Prompt: Try this compound next: `CCn1c(CNS(=O)(=O)c2ccc(Cl)cc2)n[nH]c1=S`
Response: -9.99

Prompt: Try this compound next: `CCN(CC)P(=O)(/C(Cl)=C\Nc1c(C)n(C)n(-c2ccccc2)c1=O)N(CC)CC`
Response: 2.07

Prompt: Try this compound next: `COC(=O)c1ccc(S(=O)(=O)N2CCc3ccccc3C2)cc1`
Response: -8.05

Others:
Prompt: GET /values?readout=inhibition&item= `COc1ccc(-n2cc(-c3ccccc3)c3c(=S)nc[nH]c32)cc1`
Response: 33.8

Prompt: Try this compound next: COc1ccc(NC(=O)C2COc3ccccc3O2)cc1 (configuration not stated)
Response: -1.21

Prompt: Try this compound next: CCCN(CC1COc2ccccc2O1)C(=S)Nc1ccc(C)cc1 (configuration not stated)
Response: 30.5

Prompt: Try this compound next: `O=C(Cn1nnc2ccccc2c1=O)NCc1ccc(Cl)cc1`
Response: -13.1

Prompt: Try this compound next: `O=C(ON=C1CCN(S(=O)(=O)c2ccccc2)CC1)c1ccc(Cl)cc1`
Response: 48

Prompt: Try this compound next: O=C(NCCCCc1ccccc1)C1CC(c2ccc([N+](=O)[O-])cc2)=NO1 (configuration not stated)
Response: -15.3

====

# assay-method-text: wild-type TIM10 yeast growth inhibition – luminescence, uHTS, counter-screen for tim10-1 yeast inhibitor project, primary screen (AID 463195)
# run-parameters: S. cerevisiae TIM10 strain growth, BacTiter-Glo luminescence, 24 h; at 10 µM; stronger effect = higher value
Out of some 330,000 compounds screened, about 4,600 (1.4%) were called active. The sample as a whole holds a higher share of actives than the screen did.
endpoint: inhibition (%)
Just the number please, in %, no unit attached.

Prompt: GET /values?readout=inhibition&item= CC1CCCCC12NC(=O)N(CC(=O)OCc1c(F)cccc1Cl)C2=O (configuration not stated)
Response: 1.25

Others:
Prompt: GET /values?readout=inhibition&item= `COC1=C(N2CCOCC2)C(=O)c2ccccc2C1=O`
Response: -3.21

Prompt: Try this molecule next: `CC1=C/C(=N\OS(=O)(=O)c2ccccc2)C=CC1=O`
Response: 69.4

Prompt: Try this molecule next: `Cc1cccc(C2=N/C(=C/c3cccs3)C(=O)O2)c1`
Response: 41.4

Prompt: Try this molecule next: `Cc1cc(C)c2c(-c3ccc(F)cc3)c(C#N)c(=O)n(C)c2n1`
Response: 11.3

Prompt: Try this molecule next: `COc1ccc(C(=O)COC(=O)c2ccc3ccccc3n2)cc1`
Response: 37.3

====

# assay-method-text: wild-type TIM10 yeast growth inhibition – luminescence, uHTS, counter-screen for tim10-1 yeast inhibitor project, primary screen (AID 463195)
# run-parameters: S. cerevisiae TIM10 strain growth, BacTiter-Glo luminescence, 24 h; at 10 µM
Screen size: about 330,000 compounds; about 4,600 (1.4%) were called active.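 The calls were made as follows: active = inhibition of 40% or more at the single tested concentration; inactive = the rest.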 Shown is part of a subset that was picked to be rich in actives.
Answer with one of the outcomes TRUE for active, FALSE for inactive

Prompt: Returns: the outcome recorded for S=C(NNC(=S)NC1CC2C=CC1C2)NC1CC2C=CC1C2 (stereo unspecified) in this assay.
Response: FALSE

Others:
Prompt: Returns: the outcome recorded for `NS(=O)(=O)c1ccc(N=Nc2c(O)[nH]c3ccc(Br)cc23)cc1` in this assay.
Response: FALSE

Prompt: Try this compound next: `COc1ccc(Cc2nnc(N/N=C/c3ccccc3O)[nH]c2=O)cc1OC`
Response: FALSE

Prompt: Try this compound next: `COC(=O)c1sc(-c2ccc(C(C)(C)C)cc2)cc1NC(=O)/C=C/C(=O)O`
Response: FALSE

Prompt: Try this compound next: S=C(NNC(=S)NC1CC2CCC1C2)NC1CC2C=CC1C2 (stereo unspecified)
Response: FALSE

Prompt: Try this compound next: `O=C(Nc1ccncc1)Nc1ccc(F)cc1`
Response: FALSE

Prompt: Try this compound next: `CC(C)[C@@H](C(=O)O)N(Cc1cccc(CN([C@H](C(=O)O)C(C)C)S(C)(=O)=O)c1)S(C)(=O)=O`
Response: FALSE

Prompt: Try this compound next: `O=C(NCc1ccc2c(c1)OCO2)c1c(O)nc2sccn2c1=O`
Response: TRUE

Prompt: Try this compound next: `COc1ccccc1C(=O)N/C(=C/c1ccco1)C(=O)Nc1ccc(C(=O)O)cc1`
Response: FALSE

Prompt: Try this compound next: `CC1(C)CC(=O)C=C(NCCN2CCNCC2)C1`
Response: FALSE

Prompt: Try this compound next: `CCn1c(=O)c(C(=O)NCc2ccc3c(c2)OCO3)c(O)c2ccccc21`
Response: FALSE

====

# assay-method-text: wild-type TIM10 yeast growth inhibition – luminescence, uHTS, counter-screen for tim10-1 yeast inhibitor project, primary screen (AID 463195);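 further: wild-type TIM10 isogenic control strain grown at permissive 25 °C; 0% = DMSO yeast wells and 100% = minimal medium wells without yeast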
# run-parameters: S. cerevisiae TIM10 strain growth, BacTiter-Glo luminescence, 24 h; at 10 µM; stronger effect = higher value
In all, about 330,000 compounds went through this assay and about 4,600 (1.4%) were called active. This excerpt belongs to a sample that is enriched for actives.
endpoint: inhibition (%)
Just the number please, in %, no unit attached.

Prompt: GET /values?readout=inhibition&item= `CC(=O)Nc1cccc(OCC(=O)/C=C2\N(C)c3ccccc3C2(C)C)c1`
Response: 14.8

Prompt: Try this compound next: `O=C(CN1CCCCC1)N1c2ccccc2Sc2ccc(C(F)(F)F)cc21`
Response: 13.9

Others:
Prompt: GET /values?readout=inhibition&item= `N/C(Cc1ccc([N+](=O)[O-])cc1)=N\OC(=O)COc1ccc2ccccc2c1`
Response: 44.4

Prompt: Try this compound next: `N/C(Cc1ccc([N+](=O)[O-])cc1)=N\OC(=O)C1CCCCC1`
Response: 56

Prompt: Try this compound next: COC(=O)C(C)NC(=O)COc1ccc2ccccc2c1 (stereo unspecified)
Response: 4.55

Prompt: Try this compound next: Cc1csc(CN(C)C(=O)CC2C(=O)NCCN2CC(C)(C)C)n1 (stereo unspecified)
Response: -12.9

Prompt: Try this compound next: `Cc1cc(C)nc(S/C=C/C(=O)c2ccccc2)n1`
Response: 49

Prompt: Try this compound next: CCOC(=O)C1CN(S(=O)(=O)c2ccc(OC)cc2)c2cc(Cl)ccc2O1 (stereo unspecified)
Response: 15.1

Prompt: Try this compound next: `Cc1cc(C)nc(SCc2ccccc2C#N)n1`
Response: 14.7

Prompt: Try this compound next: `Cc1cc(C)cc(OCC(=O)O/N=C(\N)Cc2ccc([N+](=O)[O-])cc2)c1`
Response: 18.5

Prompt: Try this compound next: `Cc1cc(C)nc(SCC(=O)N(C)C)n1`
Response: -9.49

====

# assay-method-text: wild-type TIM10 yeast growth inhibition – luminescence, uHTS, counter-screen for tim10-1 yeast inhibitor project, primary screen (AID 463195);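 further: wild-type TIM10 isogenic control strain grown at permissive 25 °C; 0% = DMSO yeast wells and 100% = minimal medium wells without yeast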
# run-parameters: S. cerevisiae TIM10 strain growth, BacTiter-Glo luminescence, 24 h; at 10 µM; stronger effect = higher value
Hit rate of the full screen: of about 330,000 compounds, about 4,600 (1.4%) were called active. This is one part of a sample in which actives are shown more often than they occur.
endpoint: inhibition (%)
Just the number please, in %, no unit attached.

Prompt: GET /values?readout=inhibition&item= `CC1(C)NC(=O)N(CCCCSc2ccc(Cl)cc2)C1=O`
Response: -13.6

Others:
Prompt: GET /values?readout=inhibition&item= `Cc1cc(C)n(-c2nc(SCC(=O)N3CCCC3)c3c4c(sc3n2)CCCC4)n1`
Response: 47.4

Prompt: Try this molecule next: COC(=O)c1cccc(N2C(=O)C3C4C=CC(CC4)C3C2=O)c1 (stereo not given)
Response: -2.62

Prompt: Try this molecule next: `O=C(N/N=C/c1ccc(Cl)cc1)c1nc2ccc([N+](=O)[O-])cc2c(=O)[nH]1`
Response: -0.404

Prompt: Try this molecule next: `CC(C)c1nc(SCC(=O)Nc2cccc(C(=O)O)c2)c2c3c(sc2n1)CCCC3`
Response: 6.83

====

# assay-method-text: wild-type TIM10 yeast growth inhibition – luminescence, uHTS, counter-screen for tim10-1 yeast inhibitor project, primary screen (AID 463195);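 further: wild-type TIM10 isogenic control strain grown at permissive 25 °C; 0% = DMSO yeast wells and 100% = minimal medium wells without yeast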
# run-parameters: S. cerevisiae TIM10 strain growth, BacTiter-Glo luminescence, 24 h; at 10 µM
Hit rate of the full screen: of about 330,000 compounds, about 4,600 (1.4%) were called active.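 The calls were made as follows: active = inhibition of 40% or more at the single tested concentration; inactive = the rest.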 Shown is part of a subset that was picked to be rich in actives.
Answer with one of the outcomes active, inactive

Illustrative cases are given below, each with its answer.
Prompt: Returns: the outcome recorded for `CCN(Cc1ccccc1)S(=O)(=O)c1cc2c3c(c1)CCN3C(=O)CC2` in this assay.
Response: inactive

Prompt: Try this compound next: `Cc1ccc(C(=O)Nc2ccc(NC(=O)c3cccs3)cc2)c(C)c1`
Response: inactive

Prompt: Try this compound next: `Oc1[nH]c2ccc(Br)cc2c1N=Nc1nn[nH]n1`
Response: inactive

Prompt: Try this compound next: `Cc1cccc(N=Nc2c(O)[nH]c3ccc(F)cc23)c1`
Response: active

Prompt: Try this compound next: `CC(=O)N1CCN(CC(=O)Nc2ccc(C)c(F)c2)CC1`
Response: inactive

Others:
Prompt: Returns: the outcome recorded for `O=C(Nc1ccc(NC(=O)c2cccs2)cc1)c1ccc2ccccc2c1` in this assay.
Response: inactive

Prompt: Try this compound next: `O=C(/C=C/c1ccc(N2CCOCC2)cc1)c1ccccc1`
Response: inactive

Prompt: Try this compound next: `O=C(CN1CCN(C(=O)c2cccc(F)c2)CC1)Nc1ccccc1F`
Response: inactive

Prompt: Try this compound next: `Cc1nc(C)c(-c2nnc(-c3cccc(S(=O)(=O)N(C)C)c3)o2)cc1C(=O)NN`
Response: inactive

Prompt: Try this compound next: `Cc1[nH]c(=O)c(C(=O)/C=C/c2ccccc2)c2c1CCCC2`
Response: active

Prompt: Try this compound next: `Cc1nc(-c2ccc(NC(=O)c3cccs3)cc2)cs1`
Response: active
